SYSTEM: pooled human IgG (human IgG1,2,3 and 4)
QUANTITY MEASURED: Enzyme Activity Endpoint Assay: Fab′2 (ng/µL)
Answers are plain numbers, in ng/µL.

Request: // lookup Enzyme Activity Endpoint Assay: Fab′2 for PRT-513 (protein) MITSVWTKGVTPPAKFTQGEDVFHAPYVANQGWYDITKTFNGKDDLLCGAATAGNMLHWWFDQNKEEIEAYLKKHPEKQKIMFGDQELLDVRKVINTKDSQTNSALFNYFKDKAFPNLSARRLGVMPDLVLDMFINGYYLNVYKTQTTDVNRTYQTKDRRGGIFDAVFTRGDQSKLLTERHDLKNKTLKEISDLIKQELTEGKALGLSHTYANVRINHVINLWGADFDSNGNLEAIYVTDSDSNASIGMKKYFVGVNSAGKVAISAKEIKEDNIGAQVLGLFTLSTGQDIWNQTNLEHHHHHH
Result: 397
